Every entry's value here was drawn from PubChem BioAssay (NCI).

- procedure details: NCI Yeast Anticancer Drug Screen. Data for the cln2 rad14 strain (AID 165)
- experimental parameters: S. cerevisiae cln2 rad14 strain, at 5.0 µM (retest, dose inferred, filed as 0.5), hits give high values
The panel holds about 79,000 compounds, 15% with a hit somewhere; the sample as a whole holds those more often.
Assign Criterion met whenever growth inhibition does not fall below 30%; assign Criterion not met whenever it does.

Use the examples below as a reference point.
[[record]]
compound = "CCCC(O)CNCc1ccc(N(C)C)cc1 (stereo unspecified)"
assigned_category = "Criterion not met"

[[record]]
compound = "CCCCCCCCCCCCCCNC(=O)C[N+](C)(C)Cc1ccccc1"
assigned_category = "Criterion met"

[[record]]
compound = "COc1ccc(C(=O)Cn2c(C(C)=O)nc3ccccc32)cc1"
assigned_category = "Criterion not met"

[[record]]
compound = "CCOC(C)(OCC)C(N)c1ccccc1 (stereo unspecified)"
assigned_category = "Criterion not met"


Then there is this compound:
# input Evaluate CC(=O)N(O)c1ccc2c(c1)Cc1cc(F)ccc1-2 : growth inhibition at minimum 30%?
# output Criterion met
